Entry source: ChEMBL document CHEMBL5724796

Biological target: Bromodomain-containing protein 4 (Homo sapiens)
Settings: Compound concentration 20.0 uM
Kind request: treat -2 °C as inclusive, so ΔTm at -2 °C or higher is MET, anything lower is NOT MET.

Take a look at these entries with their results.
| molecule | target.system | class |
| --- | --- | --- |
| NC(=O)C1CCCc2c1[nH]c1ccc(Cl)cc21 (centres undefined) | Bromodomain-containing protein 4 (Homo sapiens) | NOT MET |
| CCc1ccccc1NC(=O)CSC(=O)NNC(=O)[C@H](Cc1c[nH]c2ccccc12)NC(=O)OC(C)(C)C | Bromodomain-containing protein 4 (Homo sapiens) | MET |
| FC(F)(F)Cn1cc(-c2ccncc2)c(-c2ccc(OCc3ccc4ccccc4n3)cc2)n1 | Bromodomain-containing protein 4 (Homo sapiens) | NOT MET |
| Cc1cc2cc(NS(=O)(=O)c3ccc(C#N)cc3)ccc2n(C)c1=O | Bromodomain-containing protein 4 (Homo sapiens) | MET |
| NS(=O)(=O)OC[C@H]1C[C@@H](Nc2ncncc2C(=O)c2ccn(Cc3cccc(Br)c3)n2)C[C@@H]1O | Bromodomain-containing protein 4 (Homo sapiens) | NOT MET |

Say whether `O=C(CCCCCCNC(=O)c1cnc(N(c2ccccc2)c2ccccc2Cl)nc1)NO` shows ΔTm of -2 °C or more.
NOT MET

Say whether `CCCCCCNC(=O)n1cc(F)c(=O)[nH]c1=O` shows ΔTm of -2 °C or more.
MET

Say whether `O=C(NCCc1cc(C(=O)NO)no1)c1ccc(Cl)c(Cl)c1` shows ΔTm of -2 °C or more.
NOT MET

Say whether `CNC(=O)c1cc(Nc2ccnc(Nc3ccc(CCNC(=O)OC(C)(C)C)cc3)n2)n[nH]1` shows ΔTm of -2 °C or more.
NOT MET

Say whether `O=C(Nc1ccccc1C(=O)O)c1cc(S(=O)(=O)c2ccccc2)ccc1Cl` shows ΔTm of -2 °C or more.
NOT MET

* * *

Target: Mitogen-activated protein kinase 1 (Homo sapiens)
Conditions: Compound concentration 20.0 uM
Description: Thermal Shift Assay. Domain: start/stop: M1-S360
Entries get a class label from measured ΔTm. See ranges: lo (below -0.1 °C), med (-0.1 °C to below 0.4 °C), hi (0.4 °C or more)

Take a look at these entries with their results.
| compound | target.system | class |
| --- | --- | --- |
| CCN(C(=O)c1cc(F)ccc1Oc1cncnc1N1CC2(CCN(C[C@H]3CC[C@H](NS(=O)(=O)CC)CC3)CC2)C1)C(C)C | Mitogen-activated protein kinase 1 (Homo sapiens) | hi |
| O=c1cc(-c2ccc(O)cc2)oc2c(CN3CCN(Cc4cccs4)CC3)c(O)cc(O)c12 | Mitogen-activated protein kinase 1 (Homo sapiens) | lo |
| COc1nc(N)nc(Nc2cc(S(N)(=O)=O)ccc2N[C@@H](c2cccc3c2OC(F)(F)O3)c2ncccc2Cl)n1 | Mitogen-activated protein kinase 1 (Homo sapiens) | lo |
| CN(CCCCCCNc1ccnc2cc(Cl)ccc12)CCCCCCNc1ccnc2cc(Cl)ccc12 | Mitogen-activated protein kinase 1 (Homo sapiens) | lo |
| N#Cc1c(N)[nH]c2cc(/C=C/c3cccc(F)c3)ccc12 | Mitogen-activated protein kinase 1 (Homo sapiens) | hi |
| CN1C(=O)c2c(nn(Cc3ccc(-c4cccc(F)n4)cc3)c2Nc2ccccc2)N2C1=N[C@@H]1CCC[C@@H]12 | Mitogen-activated protein kinase 1 (Homo sapiens) | hi |
| COc1ccccc1S(=O)(=O)Nc1ccc2c(c1)CN(C)C(=O)N2 | Mitogen-activated protein kinase 1 (Homo sapiens) | med |
| COc1ccc(/C=C/C(=O)NO)c(-c2ccc(-c3ccccc3)cc2)c1 | Mitogen-activated protein kinase 1 (Homo sapiens) | lo |
| CCOC(=O)Oc1c(OC)cc(C(=O)O[C@H]2C[C@H]3CN4CCc5c([nH]c6cc(OC)ccc56)[C@@H]4C[C@H]3[C@@H](C(=O)OC)[C@@H]2OC)cc1OC | Mitogen-activated protein kinase 1 (Homo sapiens) | med |
| CN1Cc2c(Cl)cc(Cl)cc2[C@H](c2cccc(S(=O)(=O)NCCOCCOCCNC(=O)NCCCCNC(=O)NCCOCCOCCNS(=O)(=O)c3cccc([C@@H]4CN(C)Cc5c(Cl)cc(Cl)cc54)c3)c2)C1 | Mitogen-activated protein kinase 1 (Homo sapiens) | med |

Would you mind sorting `O=[N+]([O-])c1c(Nc2cc(F)cc(Cl)c2)ccc2nonc12` into the appropriate category?
med

Would you mind sorting `CNc1ncc2cc(-c3cc(NC(=O)NCCC(C)(C)C)c(F)cc3C)c(C)nc2n1` into the appropriate category?
lo

Would you mind sorting `Cc1[nH]c2c(N3CCCCC3)c(-c3ccccc3)nn2c(=O)c1-c1ccc(O)cc1` into the appropriate category?
hi

Would you mind sorting `Nc1ccccc1NC(=O)CCCCCC(=O)Nc1ccccc1` into the appropriate category?
med

Would you mind sorting `CCN(CC)c1ccc(C2=NNC(=O)C[C@H]2C)cc1[N+](=O)[O-]` into the appropriate category?
lo

* * *

Molecular target: Glycogen synthase kinase-3 beta (Homo sapiens) (UniProt P49841)
Sequence (P49841 whole entry, looked up): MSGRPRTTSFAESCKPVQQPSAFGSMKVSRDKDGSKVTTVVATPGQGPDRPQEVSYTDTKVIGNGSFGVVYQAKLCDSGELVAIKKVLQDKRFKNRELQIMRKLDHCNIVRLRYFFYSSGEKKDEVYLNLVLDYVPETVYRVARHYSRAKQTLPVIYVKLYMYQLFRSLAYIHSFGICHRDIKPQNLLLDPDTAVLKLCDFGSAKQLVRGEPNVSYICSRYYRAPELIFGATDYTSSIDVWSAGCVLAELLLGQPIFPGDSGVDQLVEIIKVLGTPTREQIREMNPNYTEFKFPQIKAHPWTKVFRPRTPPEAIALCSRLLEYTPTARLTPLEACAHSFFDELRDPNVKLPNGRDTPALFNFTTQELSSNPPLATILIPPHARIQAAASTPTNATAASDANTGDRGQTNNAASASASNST
Conditions: Compound concentration 20.0 uM
Description: Thermal Shift Assay. Domain: start/stop: M26-R383
result.type: ΔTm (°C)
Supply the numeric figure in °C, leaving out any unit text.

| smiles.entry | uom | ΔTm |
| --- | --- | --- |
| Cn1cc(-c2ccncc2)c(-c2ccc(OCc3ccc4ccccc4n3)cc2)n1 | °C | 0 |
| O=C(O)Cc1ccc(Cc2cc(-c3cccc(Cl)c3)nc(C(F)(F)F)c2)cc1 | °C | -1.53 |
| Cc1sc(C(=O)c2cncnc2N[C@@H]2C[C@H](COS(N)(=O)=O)[C@@H](O)C2)cc1[C@@H]1NCCc2ccc(Cl)cc21 | °C | -1.26 |
| C[C@H](N)C(=O)N1C[C@H](CCCB(O)O)[C@](N)(C(=O)O)C1 | °C | -0.3 |

Please report the measured ΔTm for `O=C(Oc1cccc(F)c1OC(=O)c1cccc(O)c1)c1cccc(O)c1`
-0.64

Please report the measured ΔTm for `Cc1cccc(Nc2ccncc2S(=O)(=O)NC(=O)NC(C)C)c1`
-0.74

Please report the measured ΔTm for `CCN(CC)C(=O)/C(C#N)=C/c1cc(O)c(O)c([N+](=O)[O-])c1`
-0.28

Please report the measured ΔTm for `N#Cc1cc(F)cc(Oc2ccc3c(c2C(F)F)[C@@H](O)C(F)(F)S3(=O)=O)c1`
0.02

Please report the measured ΔTm for `COc1ccc(N2CCN(C(=O)c3cc4c(s3)-c3ccccc3S(=O)(=O)C4)CC2)cc1`
-0.71

Please report the measured ΔTm for `CS(=O)(=O)c1ccc(-c2nnc(C=Cc3nnc(-c4ccc(C#N)cc4)o3)n2-c2ccccc2Cl)nc1`
-0.77

Please report the measured ΔTm for `CCC(=O)N1CCOc2c(cc(-c3cc(OC)cc(OC)c3)cc2C(=O)N[C@H]2CCCN(C)C2)C1`
-1.27

Please report the measured ΔTm for `O=C(Nc1c[nH]nc1C(=O)NC1CCNCC1)c1cc(F)cc(F)c1`
13.9

Please report the measured ΔTm for `Cc1ncsc1-c1ccc([C@H](C)NC(=O)[C@@H]2C[C@@H](O)CN2C(=O)[C@@H](NC(=O)CNC(=O)c2ccc(F)c(-c3ccc(N4C[C@@H](C)N(C)[C@@H](C)C4)c(NC(=O)c4c[nH]c(=O)cc4C(F)(F)F)c3)c2)C(C)(C)C)cc1`
-3.51

* * *

Entries annotated with measured ΔTm
Target: Tyrosine-protein kinase ABL1 (Homo sapiens) (UniProt P00519)
Sequence (P00519 whole entry): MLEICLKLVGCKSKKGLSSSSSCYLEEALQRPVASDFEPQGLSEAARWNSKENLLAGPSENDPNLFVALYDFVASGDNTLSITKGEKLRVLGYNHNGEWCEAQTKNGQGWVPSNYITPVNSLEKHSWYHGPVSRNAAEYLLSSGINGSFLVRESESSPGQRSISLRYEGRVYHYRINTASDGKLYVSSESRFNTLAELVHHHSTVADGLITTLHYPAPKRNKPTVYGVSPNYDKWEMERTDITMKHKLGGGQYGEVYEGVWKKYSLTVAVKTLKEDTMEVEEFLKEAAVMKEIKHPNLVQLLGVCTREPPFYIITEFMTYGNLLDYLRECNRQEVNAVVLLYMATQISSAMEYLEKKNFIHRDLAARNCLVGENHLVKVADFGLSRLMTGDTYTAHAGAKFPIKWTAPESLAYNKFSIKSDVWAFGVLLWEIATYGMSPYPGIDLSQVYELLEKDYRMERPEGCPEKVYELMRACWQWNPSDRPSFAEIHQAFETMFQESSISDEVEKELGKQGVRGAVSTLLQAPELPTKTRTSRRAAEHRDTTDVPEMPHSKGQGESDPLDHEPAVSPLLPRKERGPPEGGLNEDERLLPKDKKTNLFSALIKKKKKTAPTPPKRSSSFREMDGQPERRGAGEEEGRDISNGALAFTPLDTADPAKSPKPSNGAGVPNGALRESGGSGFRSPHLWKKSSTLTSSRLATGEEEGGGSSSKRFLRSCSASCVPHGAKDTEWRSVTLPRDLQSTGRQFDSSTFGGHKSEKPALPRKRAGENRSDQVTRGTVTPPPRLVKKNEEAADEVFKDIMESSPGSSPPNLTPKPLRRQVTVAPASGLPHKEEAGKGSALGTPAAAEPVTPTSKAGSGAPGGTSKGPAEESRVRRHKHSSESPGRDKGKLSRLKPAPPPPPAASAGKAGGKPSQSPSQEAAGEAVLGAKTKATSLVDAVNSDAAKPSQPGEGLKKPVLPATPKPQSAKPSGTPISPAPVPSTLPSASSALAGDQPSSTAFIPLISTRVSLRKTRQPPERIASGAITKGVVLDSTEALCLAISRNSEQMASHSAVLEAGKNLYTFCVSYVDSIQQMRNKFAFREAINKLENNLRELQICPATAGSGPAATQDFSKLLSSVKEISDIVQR
Details: Compound concentration 20.0 uM
Description: Thermal Shift Assay. Domain: start/stop: S229-K512
Residues, ends and D or L forms follow the SMILES beside them. *: point of attachment. Cbz = O=C(OCc1ccccc1)*; CH2F = FC*
Supply the numeric figure in °C, leaving out any unit text.

| molecule | ΔTm / °C |
| --- | --- |
| CCOCC1(COCC)CCC(c2n[nH]cc2CN(C)CCNC)CC1 | 0.58 |
| CS(=O)(=O)c1ccc(Oc2cc(F)cc(C#N)c2)c2c1[C@H](O)C(F)(F)C2 | 0.43 |
| N#Cc1ccc(Nc2cnccc2SCc2ccccc2C(=O)O)c2ccccc12 | 0.28 |
| CNCc1ccc(-c2[nH]c3cc(F)cc4c3c2CCNC4=O)cc1 | 0.58 |
| CC1(NC(=O)COc2cccc(-c3nc4c(c(Nc5ccc(-c6cn[nH]c6)cc5)n3)CN(C3CCC3)CC4)c2)CC1 | 0.81 |
| N#C[C@@H]1CCCN1C(=O)CNC(=O)c1ccnc2ccc(OCCCN3CCN(C(=O)CN4CCN(CC(=O)O)CCN(CC(=O)O)CCN(CC(=O)O)CC4)CC3)cc12 | 0.75 |

Please report the measured ΔTm for `C[C@H](CN[C@@H](C(=O)Nc1ccc(-c2cnn(C)c2)cn1)c1ccccc1)c1ccc(C#N)cc1`
-0.21

Please report the measured ΔTm for `Cc1cccc(N/N=C(\C(=O)c2cccs2)C(=O)C(F)(F)F)c1`
0.48

Please report the measured ΔTm for COC(=O)CC[C@H](NC(=O)[C@H](C)NC(=O)OCc1ccccc1)C(=O)N[C@H](C(=O)N[C@@H](CC(=O)OC)C(=O)CF)C(C)C (Cbz-AE(OMe)VD(OMe)-CH2F)
0.32

Please report the measured ΔTm for `N[C@@H](CCNCc1ccc(Cl)cc1)C(=O)N1CCCCC1`
0.49

Please report the measured ΔTm for `COc1cc2c(NC3CCN(CC4CCCCC4)CC3)nc(N3CCCN(C(C)C)CC3)nc2cc1OCCCN1CCCCC1`
0.33

Please report the measured ΔTm for `CCCOc1ccc(CCc2nc3cc(-c4c(C)noc4C)ccc3n2CCN2CCOCC2)cc1`
0.14

Please report the measured ΔTm for O=C(NC(Cc1ccccc1)C(=O)NC(Cc1ccccc1)C(=O)CF)OCc1ccccc1 (stereo not drawn) (Cbz-Phe-Phe-CH2F; configuration not given here)
0.45
